System: L929 cells
Experiment: L929 cell necroptosis assay (TNFa + zVAD, CellTiter-Glo)
Format: cell-based, murine
Details: Mus musculus, L929, L929 cells, TNFa + zVAD; read-out: L929-CTG-recovery, L929, TNFa + zVAD (IC50)
This listing pairs compounds with measured IC50.
measure.name: IC50

{"sample.smiles": "CN1C(=O)[C@@H](NC(=O)c2ccn(Cc3ccccc3)n2)COc2ccc(C#CC(C)(C)O)cc21", "result": "0.3 nM"}
{"sample.smiles": "CN1C(=O)[C@@H](NC(=O)c2ncn(Cc3ccc(-c4ccccc4)cc3)n2)COc2ccc(C#CC(C)(C)O)cc21", "result": "0.1 nM"}
{"sample.smiles": "CN1C(=O)[C@@H](NC(=O)c2cc(Oc3ccccc3)ccn2)COc2ccc(C#CCO)cc21", "result": "164 nM"}
{"sample.smiles": "CN1C(=O)[C@@H](NC(=O)n2cc(Cc3ccc(F)cc3F)cn2)COc2ccc(Br)cc21", "result": "15500 nM"}

###

System: L929 cells
Test: L929 cell necroptosis assay (TNFa + zVAD, CellTiter-Glo)
Assay type: cell-based, murine
Conditions: Mus musculus, L929, L929 cells, TNFa + zVAD; read-out: L929-CTG-recovery, L929, TNFa + zVAD (IC50)
Item-by-item account of log10 IC50
measure.name: log10 IC50 (log10 of the value in nM)

{"sample.smiles": "[2H]C([2H])([2H])C(O)(C#Cc1ccc2c(c1)N(C)C(=O)[C@@H](NC(=O)c1n[nH]c(Cc3ccccc3)n1)CO2)C([2H])([2H])[2H]", "log10 IC50": -0.05}
{"sample.smiles": "CN1C(=O)[C@@H](NC(=O)c2nnc(Cc3ccccc3)o2)COc2ccc(C#CC(C)(C)O)cc21", "log10 IC50": -0.70}
{"sample.smiles": "CN1C(=O)[C@@H](NC(=O)c2cc(Oc3ccc(F)cc3)ccn2)COc2ccc(C#CC(C)(C)C)cc21", "log10 IC50": 2.82}
{"sample.smiles": "CC(C)[C@H](N)C(=O)OC1(C#Cc2ccc3c(c2)N(C)C(=O)[C@@H](NC(=O)c2cc(Oc4ccccc4)ccn2)CO3)COC1", "log10 IC50": 1.65}
{"sample.smiles": "CN1C(=O)[C@@H](NC(=O)c2ncn(Cc3ccccc3)n2)COc2ccc(CN3CCn4nc(C(F)(F)F)nc4C3)cc21", "log10 IC50": -0.40}
{"sample.smiles": "CC(C)CCc1ccc2c(c1)N(C)C(=O)[C@@H](NC(=O)c1cc(Oc3ccccc3)ccn1)CO2", "log10 IC50": 3.36}
{"sample.smiles": "Cc1c(Cc2ccccc2)cnn1C(=O)N[C@H]1COc2ccc(C#CC(C)(C)O)cc2N(C)C1=O", "log10 IC50": 3.28}
{"sample.smiles": "CN1C(=O)[C@@H](NC(=O)c2cc(Oc3ccc(F)cc3)ccn2)COc2ccc(C#CC(C)(C)CO)cc21", "log10 IC50": 2.56}
{"sample.smiles": "CN1C(=O)[C@@H](NC(=O)n2cc(Cc3ccc(F)cc3)cn2)COc2ccc(C#CC(C)(C)O)cc21", "log10 IC50": 1.88}
{"sample.smiles": "CN1C(=O)[C@@H](NC(=O)n2cc(Cc3ccc(F)cc3)cn2)COc2ccc(C#CC(C)(C)N)cc21", "log10 IC50": 3.25}
{"sample.smiles": "CN1C(=O)[C@@H](NC(=O)c2cc(Oc3ccccc3)ccn2)COc2ccc(C#CC(C)(C)N3CCS(=O)(=O)CC3)cc21", "log10 IC50": 1.65}
{"sample.smiles": "CN1C(=O)[C@@H](NC(=O)c2ncn(Cc3ccccc3)n2)COc2ccc(CN3CCn4c(nnc4C(F)(F)F)C3)cc21", "log10 IC50": -0.40}
{"sample.smiles": "CN1C(=O)[C@@H](NC(=O)c2n[nH]c(Cc3ccccc3)n2)COc2ccc(C#CCCOc3ccc4cccnc4c3)cc21", "log10 IC50": 0.20}
{"sample.smiles": "Cc1cc(Oc2ccccc2)cc(C(=O)N[C@H]2COc3ccc(C#CC(C)(C)O)cc3N(C)C2=O)n1", "log10 IC50": 3.61}

###

System: L929 cells
Experiment: L929 cell necroptosis assay (TNFa + zVAD, CellTiter-Glo)
Format: cell-based, murine
Details: Mus musculus, L929, L929 cells, TNFa + zVAD; read-out: L929-CTG-recovery, L929, TNFa + zVAD (IC50)
# note: exactly 600 nM is not below, so it is not fulfilled; use fulfilled for IC50 strictly under it

{"sample.smiles": "CN1C(=O)[C@@H](NC(=O)c2n[nH]c(Cc3ccccc3)n2)COc2ccc(C#C[C@@]3(O)CO[C@@H]4[C@@H](O)CO[C@@H]43)cc21", "classification": "fulfilled"}
{"sample.smiles": "CN1C(=O)[C@@H](NC(=O)c2n[nH]c(Cc3ccc(F)cc3F)n2)COc2ccc(C#CC(C)(C)O)cc21", "classification": "fulfilled"}
{"sample.smiles": "CN1C(=O)[C@@H](NC(=O)c2n[nH]c(Cc3ccccc3)n2)COc2ccc(CCCCNc3ccccn3)cc21", "classification": "fulfilled"}
{"sample.smiles": "CN1C(=O)[C@@H](NC(=O)c2n[nH]c(Cc3ccccc3)n2)COc2ccc(C#Cc3ccc4c(c3)CNCC4)cc21", "classification": "fulfilled"}
{"sample.smiles": "CN1C(=O)[C@@H](NC(=O)c2cc(Oc3ccc(F)cc3)ccn2)COc2ccc(C#CC(C)(C)COP(=O)(O)O)cc21", "classification": "not fulfilled"}

###

Assay: in vivo pharmacokinetics, plasma and brain exposure
Details: brain
List of BRAIN AUC0-6 values.
measure.name: BRAIN AUC0-6

{"molecule": "CN1C(=O)[C@@H](NC(=O)c2cc(Oc3ccccc3)ccn2)COc2ccc(C#CC3(C)COC3)cc21 [Compound I-127]", "measure.name": "BRAIN AUC0-6", "recorded.number": 160}
{"molecule": "Cc1cccc(C#Cc2ccc3c(c2)N(C)C(=O)[C@@H](NC(=O)n2cc(Cc4ccc(F)cc4)cn2)CO3)n1 [Compound I-183]", "measure.name": "BRAIN AUC0-6", "recorded.number": 326}
{"molecule": "CN1C(=O)[C@@H](NC(=O)n2cc(Cc3ccc(F)cc3)cn2)COc2ccc(N3CC4(CCOCC4)C3)cc21 [Compound I-184]", "measure.name": "BRAIN AUC0-6", "recorded.number": 731}
{"molecule": "COC1(C#Cc2ccc3c(c2)N(C)C(=O)[C@@H](NC(=O)c2cc(Oc4ccccc4)ccn2)CO3)CN(C)C1 [Compound I-155]", "measure.name": "BRAIN AUC0-6", "recorded.number": 373}

###

A collection of molecules and their measured pIC50
Biological target: RIPK1 (Homo sapiens (Human), UniProt Q13546)
Sequence (Q13546 whole entry, species assumed): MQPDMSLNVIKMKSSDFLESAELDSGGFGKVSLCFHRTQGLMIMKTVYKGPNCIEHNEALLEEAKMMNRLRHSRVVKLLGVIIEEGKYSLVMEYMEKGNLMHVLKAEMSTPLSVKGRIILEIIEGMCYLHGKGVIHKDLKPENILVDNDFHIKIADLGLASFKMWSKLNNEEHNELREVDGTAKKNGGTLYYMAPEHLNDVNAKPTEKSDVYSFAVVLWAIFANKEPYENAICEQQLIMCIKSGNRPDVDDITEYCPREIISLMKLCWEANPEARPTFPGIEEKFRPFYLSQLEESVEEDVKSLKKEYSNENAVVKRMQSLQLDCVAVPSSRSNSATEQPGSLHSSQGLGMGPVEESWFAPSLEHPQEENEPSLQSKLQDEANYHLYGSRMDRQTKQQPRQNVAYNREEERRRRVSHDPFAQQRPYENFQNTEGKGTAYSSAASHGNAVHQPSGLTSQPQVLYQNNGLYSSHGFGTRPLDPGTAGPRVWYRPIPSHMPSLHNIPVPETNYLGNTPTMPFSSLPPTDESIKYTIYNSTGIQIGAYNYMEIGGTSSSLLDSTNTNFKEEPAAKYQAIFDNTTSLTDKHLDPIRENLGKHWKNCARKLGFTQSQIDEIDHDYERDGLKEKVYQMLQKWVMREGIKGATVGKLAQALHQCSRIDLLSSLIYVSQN
Experiment: RIPK1 ADP-Glo biochemical kinase assay
Details: read-out: RIPK1 ADP-Glo Kinase (IC50)
pIC50: −log10 of the molar value.
measure.name: pIC50

{"molecule": "CN1C(=O)[C@@H](NC(=O)c2ncn(Cc3ccccc3)n2)COc2ccc(CCC(=O)NC3CC3)cc21 [Compound I-26]", "system.tested": "RIPK1 (Homo sapiens (Human), UniProt Q13546)", "recorded.number": 7.18}
{"molecule": "CN1C(=O)[C@@H](NC(=O)c2n[nH]c(Cc3ccccc3)n2)COc2ccc(CCCCNc3ccccn3)cc21 [Compound I-17]", "system.tested": "RIPK1 (Homo sapiens (Human), UniProt Q13546)", "recorded.number": 6.31}
{"molecule": "CN1C(=O)[C@@H](NC(=O)c2cc(Cc3ccccc3)on2)COc2ccc(C#CC(C)(C)O)cc21 [Compound I-87]", "system.tested": "RIPK1 (Homo sapiens (Human), UniProt Q13546)", "recorded.number": 7.73}
{"molecule": "CN1CCC2(CC1)CCN(c1ccc3c(c1)N(C)C(=O)[C@@H](NC(=O)c1cc(Oc4ccccc4)ccn1)CO3)CC2 [II-27]", "system.tested": "RIPK1 (Homo sapiens (Human), UniProt Q13546)", "recorded.number": 7.55}
{"molecule": "CN1C(=O)[C@@H](NC(=O)c2n[nH]c(Cc3ccccc3F)n2)COc2ccc(C#CC(C)(C)O)cc21 [Compound I-80]", "system.tested": "RIPK1 (Homo sapiens (Human), UniProt Q13546)", "recorded.number": 7.69}
{"molecule": "CN1C(=O)[C@@H](NC(=O)c2ncn(Cc3ccccc3)n2)COc2ccc(CCC(N)=O)cc21 [Compound I-32]", "system.tested": "RIPK1 (Homo sapiens (Human), UniProt Q13546)", "recorded.number": 7.66}
{"molecule": "C=C(C)C#Cc1ccc2c(c1)NC(=O)[C@@H](NC(=O)c1n[nH]c(Cc3ccccc3)n1)CO2 [Compound I-93]", "system.tested": "RIPK1 (Homo sapiens (Human), UniProt Q13546)", "recorded.number": 7.19}
